Tested on: unfractionated heparin (UFH)
protocol notes: aPTT clotting assay, UFH 0.2 U/mL in plasma (Example 7)
Assay type: biochemical
condition summary: UFH 0.2 U/mL in plasma
This section presents compounds with their documented UFH (aPTT) EC50 values.
API: value field is a number in µg/mL; no unit string.

>>> result_number("COc1ccc(NC(=O)[C@H](CCCCN)NC(=O)c2cc(NC(=O)[C@H](CCCCN)NC(=O)c3cc(NC(=O)[C@H](CCCCN)NC(=O)c4cc(NC(=O)[C@@H](N)CCCNC(N)=O)ccc4OC)ccc3OC)ccc2OC)cc1C(N)=O [Compound 137]")
2.00

// below: UFH (aPTT) EC50 requested for another compound
Field UFH (aPTT) EC50 (entry COc1ccc(NC(=O)[C@@H](CCCNC(=N)N)NC(=O)c2cc(NC(=O)[C@@H](CCCNC(=N)N)NC(=O)c3cc(NC(=O)[C@@H](CCCNC(=N)N)NC(=O)c4cc(NC(=O)[C@H](N)CC(N)=O)ccc4OC)ccc3OC)ccc2OC)cc1C(N)=O [Compound 72] ) reads 2.11

====

This section presents compounds with their documented EC50 at 1 h values.
protocol notes: Cytotoxicity colorimetric assay, NIH/3T3
Format: cell-based, mouse
condition summary: mouse, NIH/3T3 cells, one hour in serum-free media
API: value field is a number in µg/mL; no unit string.

>>> result_number("COc1ccc(NC(=O)[C@H](CCCNC(=N)N)NC(=O)c2cc(NC(=O)[C@H](CCCNC(=N)N)NC(=O)c3cc(NC(=O)[C@H](CCCNC(=N)N)NC(=O)c4cc(NC(=O)[C@@H](N)CCCNC(=N)N)ccc4OC)ccc3OC)ccc2OCC(=O)O)cc1C(=O)N[C@@H](Cc1c[nH]c2ccccc12)C(N)=O")
1000

// below: EC50 at 1 h requested for another compound
Field EC50 at 1 h (entry `COc1ccc(NC(=O)[C@@H](CCCNC(=N)N)NC(=O)c2cc(NC(=O)[C@@H](CCCNC(=N)N)NC(=O)c3cc(NC(=O)[C@@H](CCCNC(=N)N)NC(=O)c4cc(NC(=O)[C@H](N)CCCNC(=N)N)ccc4OCC(=O)O)ccc3OC)ccc2OC)cc1C(N)=O` ) reads 1000

====

This section presents compounds with their documented EC50 values.
System: UFH
protocol notes: FXa amidolytic assay (Example 10), UFH
condition summary: read-out: Heparin FXa uM EC50; UFH 0.03 units/mL; human antithrombin, bovine Factor Xa
Give the value; after it, write the unit.

>>> result("COc1ccc(NC(=O)[C@H](CCCNC(=N)N)NC(=O)c2cc(NC(=O)[C@H](CCCNC(=N)N)NC(=O)c3cc(NC(=O)[C@H](CCCNC(=N)N)NC(=O)c4cc(NC(C)=O)ccc4OC)ccc3OCC(=O)O)ccc2OC)cc1C(=O)N[C@@H](Cc1c[nH]c2ccccc12)C(N)=O")
"0.295 µM"

// below: EC50 requested for another compound
Field EC50 (entry `COc1ccc(NC(=O)[C@@H](CCCNC(N)=O)NC(=O)c2cc(NC(=O)[C@@H](CCCNC(N)=O)NC(=O)c3cc(NC(=O)[C@@H](CCCNC(=N)N)NC(=O)c4cc(NC(=O)[C@H](N)CCCNC(=N)N)ccc4OC)ccc3OC)ccc2OC)cc1C(N)=O` ) reads 0.681 µM

====

System: unfractionated heparin (UFH)
protocol notes: aPTT clotting assay, UFH 0.2 U/mL in plasma (Example 7)
Type: biochemical
condition summary: UFH 0.2 U/mL in plasma
This section presents compounds with their documented UFH (aPTT) EC50 values.
API: value field is a number in µg/mL; no unit string.

Tested on unfractionated heparin (UFH): COc1ccc(NC(=O)[C@H](CCCCN)NC(=O)c2cc(NC(=O)[C@H](CCCCN)NC(=O)c3cc(NC(=O)[C@H](C)NC(=O)c4cc(NC(=O)[C@@H](N)CCCCN)ccc4OC)ccc3OC)ccc2OC)cc1C(N)=O [Compound 77] . Observed UFH (aPTT) EC50: 4.55

Tested on unfractionated heparin (UFH): COc1ccc(NC(=O)[C@@H](CCCNC(=N)N)NC(=O)c2cc(NC(=O)[C@@H](CCCNC(=N)N)NC(=O)c3cc(NC(=O)[C@@H](CCCNC(=N)N)NC(=O)c4cc(NC(=O)[C@@H](CCCNC(=N)N)NC(=O)CCCCCCCCC(=O)N[C@H](CCCNC(=N)N)C(=O)Nc5ccc(OC)c(C(=O)N[C@H](CCCNC(=N)N)C(=O)Nc6ccc(OC)c(C(=O)N[C@H](CCCNC(=N)N)C(=O)Nc7ccc(OC)c(C(=O)N[C@H](CCCNC(=N)N)C(=O)Nc8ccc(OC)c(C(N)=O)c8)c7)c6)c5)ccc4OC)ccc3OC)ccc2OC)cc1C(N)=O [Compound 66] . Observed UFH (aPTT) EC50: 2.53

Tested on unfractionated heparin (UFH): COc1cc(OC)c(C(=O)N[C@H]2CC[C@H](NC(=O)c3cc(C(=O)NCCN(C)C)c(OCCCCCNC(=N)N)cc3OCCCCCNC(=N)N)CC2)cc1C(=O)NC1CCC(NC(=O)c2cc(C(=O)NCCN(C)C)c(OCCCCCNC(=N)N)cc2OCCCCCNC(=N)N)CC1 (stereo partly drawn) [Compound 3] . Observed UFH (aPTT) EC50: 1.76

====

This section presents compounds with their documented Cytotoxicity HepG2, percent printed in parentheses after the concentration values.
Test system: HepG2 cells
protocol notes: Cytotoxicity colorimetric assay, HepG2
Format: cell-based, human
Set-up: concentration or dose not given beside the values
condition summary: at the concentration given
API: value field is a number in %; no unit string.

>>> result_number("COc1ccc(NC(=O)[C@@H](CCCNC(=N)N)NC(=O)c2cc(NC(=O)[C@@H](CCCNC(=N)N)NC(=O)c3cc(NC(=O)[C@@H](CCCNC(=N)N)NC(=O)c4cc(NC(C)=O)ccc4OC)ccc3OC)ccc2OC)cc1C(=O)N[C@H](Cc1ccc(O)cc1)C(=O)O")
60
>>> result_number("COc1ccc(NC(=O)[C@H](CCCNC(=N)N)NC(=O)c2cc(NC(=O)[C@H](CCCNC(=N)N)NC(=O)c3cc(NC(=O)[C@H](CCCNC(=N)N)NC(=O)c4cc(NC(=O)[C@@H](N)CCCNC(=N)N)ccc4OC)ccc3OC)ccc2OC)cc1C(=O)N[C@@H](Cc1c[nH]c2ccccc12)C(=O)O")
50
>>> result_number("COc1ccc(NC(=O)[C@H](CCCNC(=N)N)NC(=O)c2cc(NC(=O)[C@H](CCCNC(=N)N)NC(=O)c3cc(NC(=O)[C@H](CCCNC(=N)N)NC(=O)c4cc(NC(=O)[C@@H](N)CCCNC(=N)N)ccc4OC)ccc3OC)ccc2OCC(=O)O)cc1C(N)=O")
30

// below: Cytotoxicity HepG2, percent printed in parentheses after the concentration requested for another compound
Field Cytotoxicity HepG2, percent printed in parentheses after the concentration (entry `COc1ccc(NC(=O)[C@@H](CCCNC(=N)N)NC(=O)c2cc(NC(=O)[C@@H](CCCNC(=N)N)NC(=O)c3cc(NC(=O)[C@@H](CCCNC(=N)N)NC(=O)c4cc(NC(=O)[C@H](N)CCCNC(=N)N)ccc4OC)ccc3OC)ccc2OCC(=O)O)cc1C(=O)N[C@H](Cc1c[nH]c2ccccc12)C(N)=O` ) reads 50

====

Tested on: unfractionated heparin (UFH)
protocol notes: aPTT clotting assay, UFH 0.2 U/mL in plasma (Example 7)
Assay type: biochemical
condition summary: UFH 0.2 U/mL in plasma
reported endpoint: UFH (aPTT) EC50 (µg/mL)
API: value field is a number in µg/mL; no unit string.

>>> result_number("N=C(N)NCCC[C@@H](N)C(=O)Nc1ccc(Cl)c(C(=O)N[C@H](CCCNC(=N)N)C(=O)Nc2ccc(Cl)c(C(=O)N[C@H](CCCNC(=N)N)C(=O)Nc3ccc(Cl)c(C(=O)N[C@H](CCCNC(=N)N)C(=O)Nc4ccc(Cl)c(C(N)=O)c4)c3)c2)c1")
4.26

// below: UFH (aPTT) EC50 requested for another compound
Field UFH (aPTT) EC50 (entry `COc1ccc(NC(=O)[C@H](CCCCN)NC(=O)c2cc(NC(=O)[C@H](CCCCN)NC(=O)c3cc(NC(=O)[C@H](CCCCN)NC(=O)c4cc(NC(=O)[C@@H](N)CCCCN)cc(C(F)(F)F)c4)ccc3OC)ccc2OC)cc1C(N)=O` ) reads 7.39

====

protocol notes: Cytotoxicity colorimetric assay, NIH/3T3
Type: cell-based, mouse
condition summary: mouse, NIH/3T3 cells, one hour in serum-free media
Protocol: This assay measures the bioreduction of a novel tetrazolium compound to a soluble formazan product by viable cells. HepG2 cells were seeded in 96 well plates at 3×10^4 cells/well in MEM medium with 10% fetal bovine serum (FBS) 24 hours prior to use. […] After incubation, the media was replaced with serum supplemented media and live cells were measured using the Cell Titer 96 Aqueous […] Assay kit (Promega, Madison, Wis.). […]
For each record, check the reported EC50 at 1 h: if it is below 1000 µg/mL write 1, else write -1.

Record excerpt, results attached:
>>> assigned_class("COc1cc(OC)c(C(=O)N[C@H]2CC[C@@H](NC(=O)c3cc(C(=O)N[C@H]4CC[C@@H](NC(=O)c5cc(C(=O)NCCN)c(OC)cc5OC)CC4)c(OC)cc3OC)CC2)cc1C(=O)NCCN")
-1
>>> assigned_class("COc1ccc(NC(=O)[C@H](CCCCN)NC(=O)c2cc(NC(=O)[C@H](CCCCN)NC(=O)c3cc(NC(=O)[C@H](CCCCN)NC(=O)c4cc(NC(=O)[C@H](CCCCN)NC(=O)c5c[nH]c6ccccc56)ccc4OC)ccc3OC)ccc2OC)cc1C(N)=O")
1
>>> assigned_class("COc1ccc(NC(=O)[C@H](CCCCN)NC(=O)c2cc(NC(=O)[C@H](CCCCN)NC(=O)c3cc(NC(=O)[C@H](CCCCN)NC(=O)c4cc(NC(=O)[C@@H](N)CCCCN)ccc4OC)ccc3OC)ccc2OC)cc1C(=O)NCCC(=O)O")
-1

I wonder whether `COc1cc(OC)c(C(=O)N[C@H]2CC[C@H](NC(=O)c3cc(C(=O)N[C@H]4CC[C@H](NC(=O)c5cc(C(=O)NCCCN)c(OC)cc5OC)CC4)c(OC)cc3OC)CC2)cc1C(=O)NCCCN` has EC50 at 1 h below 1000 µg/mL. Can you tell?
1

I wonder whether `COc1cc(OC)c(C(=O)N[C@H]2CC[C@H](NC(=O)c3cccc(C(=O)N[C@H]4CC[C@H](NC(=O)c5cc(C(=O)NCCN)c(OC)cc5OC)CC4)c3)CC2)cc1C(=O)NCCN` has EC50 at 1 h below 1000 µg/mL. Can you tell?
-1

I wonder whether `COc1cc(OC)c(C(=O)N[C@H]2CC[C@H](NC(=O)c3ccc(OCCCCCN)cc3OCCCCCN)CC2)cc1C(=O)N[C@H]1CC[C@H](NC(=O)c2ccc(OCCCCCN)cc2OCCCCCN)CC1` has EC50 at 1 h below 1000 µg/mL. Can you tell?
1
